Quick reference for Cmax among some compounds
- test-description: Pharmacokinetics and bioanalysis in the rat
- Type: in vivo, male Sprague Dawley Rats
- condition-label: male, Sprague Dawley, oral 10 mg/kg, citric acid salt, plasma
quantity: Cmax (ng/mL)

test-smiles	readout-number
O=C(O)CC(O)(CC(=O)O)C(=O)O.O=C(c1ccc(CN2CCOCC2)cc1)N1CCN(C2CCC2)CC1	683
CC(C)N1CCN(C(=O)c2ccc(CN3CCOCC3)cc2)CC1.O=C(O)CC(O)(CC(=O)O)C(=O)O	1050

====

The entries below are paired with their reported half-life.
- test-description: Pharmacokinetics and bioanalysis in the rat
- Format: in vivo, male Sprague Dawley Rats
- condition-label: male, Sprague Dawley, oral 10 mg/kg, citric acid salt, plasma

compound	half-life [h]
O=C(O)CC(O)(CC(=O)O)C(=O)O.O=C(c1ccc(CN2CCOCC2)cc1)N1CCN(C2CC2)CC1	3.11
CC(C)N1CCN(C(=O)c2ccc(CN3CCOC(CO)C3)cc2)CC1 (stereo not shown)	4.35
O=C(O)CC(O)(CC(=O)O)C(=O)O.O=C(c1ccc(CN2CCOC(CO)C2)cc1)N1CCN(C2CC2)CC1 (stereo not shown)	3.58
O=C(O)CC(O)(CC(=O)O)C(=O)O.O=C(c1ccc(CN2CCOCC2)cc1)N1CCN(C2CCC2)CC1	2.89

Each recorded value in this set is attributed to patent US7910582B2.
